# Tested on: Trypanosoma cruzi
# TEST_DETAILS: GSK_TCAKS: pIC50 Trypanosoma cruzi Imaging: Infected Cells. […] Cells were then washed once with PBS before infection. T. cruzi trypomastigotes, collected at days 5 to 8 after infection from LLC-MK2 parasite infected cultures, were allowed to swim out for 4h at 37C from a centrifuged pellet (2,500 rpm/10 min/room temperature). Trypomastigotes were then collected and counted in a CASY Cell Counter. Trypomastigotes, in supplemented DMEM, were added to H9c2 cultures in a multiplicity of infection of 1 and incubated for 18 h. Cells were washed once with PBS before incubation of the infected H9c2 monolayer with trypsin (Life-Technologies) to detach cells from the flask. Cells were counted in a CASY Cell Counter using a 150 um capillary and their density set at 5 * 10^4 cells per mL in supplemented assay DMEM. Infected H9c2 were dispensed into 384-well poly-lysine coated assay plates at 50uL per well using a Multidrop Combi dispenser. After seeding them, the plates were incubated at 37C, 5% CO2 for 72h. Cultures were then fixed and stained by addition of 50 uL of a solution containing 8% formaldehyde and 4 uM DRAQ5 DNA dye (BioStatus, UK) per well. […] Five images were collected per well for reliable statistical analysis. Automated image analysis was performed with a script developed on Acapella High Content Imaging and Analysis Software (PerkinElmer). Output: percentage of infected cells per well as a second infection marker.
# Format: functional, organism-based, Rattus norvegicus
# PARTICULARS: H9c2, 4 h
PARAMETER: pIC50
Just so you know, pIC50 here is -log10 of the concentration in molar units; reply with that number alone.

# input Identify measured pIC50 associated with CC(=O)NC1(c2ccccc2)CCN(CC(=O)Nc2ccccc2-c2ccccc2)CC1
# output 5.10

# input Give the reported pIC50 for this molecule. CCC(CC)C(=O)Nc1ccc(-c2nnc(-c3ccc(OC)cc3)o2)cc1
# output 4.90

# input Determine from records and report pIC50 for COc1ccc2ncc(Cl)c(CCN3CC[C@H](NCc4cc5c(cn4)OCS5)[C@@H](O)C3)c2n1
# output 6.80

# input Name the recorded pIC50 of the item O=C(NCc1nnc2n1CCCCC2)c1ccc(-c2ccc(F)cc2)o1 in your answer.
# output 5.80

# input Let me know recorded pIC50 for CN(C)CCN(C)Cc1ccc(F)cc1NS(=O)(=O)c1ccc(Cl)c(Cl)c1 , thanks.
# output 5.60

# input Identify measured pIC50 associated with C[C@@H](Oc1cc(-n2cnc3cc(N)ccc32)sc1C(N)=O)c1ccccc1Cl
# output 4.70

# input Could you please provide reported pIC50 for CC(C)(C)CC(=O)NCc1noc(COc2ccccc2)n1 ? Thanks!
# output 5.60

# input Identify measured pIC50 associated with Cc1nc(C(=O)Nc2ccc3c(c2)OCO3)nn1-c1ccc(F)cc1
# output 5.90

# input Give pIC50 for O=C(c1cccc(Nc2ncc(-c3ccc4c(c3)OCO4)cn2)c1)N1CCSC1
# output 6.60

# input Return pIC50 for the following molecule: N#Cc1ccc(S(=O)(=O)N2CCC3(CCN(c4ccccc4)C3=O)CC2)cc1
# output 6.00

# input Please report the measured pIC50 for CCc1nn(-c2ncc(F)c(NC(C)C)n2)c(N)c1C1CCCCC1
# output 5.50

# input Assign pIC50 to the following record: CCCCn1nnnc1CSc1nc(C)cc(C)c1C#N
# output 6.70

# input // Input: CC(C)(C)c1cc(NC2CC2)nc(-c2ccccn2)n1 . Output its pIC50 only.
# output 5.80

# input Give a short answer stating reported pIC50 for CNc1cncc(C2CCCN2C(=O)Cc2ccc3ccccc3c2)n1 (stereo not given) .
# output 6.80

# input Answer with the recorded pIC50 of CS(=O)(=O)c1ccc(CC(=O)Nc2nc(-c3ccc(Cl)s3)cs2)cc1 only.
# output 6.50

# input Please report pIC50 for the following molecule: Cc1ccc(Nc2nc(N)nc(CNC(c3nc4ccccc4[nH]3)C(C)C)n2)cc1 (stereo not given)
# output 5.10

# input Provide one value: measured pIC50 of O=[N+]([O-])c1ccc(C2=NCCNC(c3ccccc3)=C2)cc1.[O-][Cl+3]([O-])([O-])O
# output 6.00

# input Look up pIC50 of CN(C)CCN(C)Cc1ccc(Cl)cc1NS(=O)(=O)c1ccc(Cl)c(Cl)c1 and report it.
# output 5.70

# input Please give measured pIC50 of the following entry: O=C(NCC1CCCCN1C(=O)c1cccc2ccccc12)c1ccccc1 (stereo not given)
# output 5.30

# input Using the record for COc1ccc(-c2cc(C)no2)cc1S(=O)(=O)Nc1ccc(C)c(C)c1 , state its measured pIC50.
# output 5.10

# input Please give the documented pIC50 of O=C(Nc1nc(-c2ccccn2)cs1)C1CCc2ccccc2C1 (stereo not given)
# output 5.60

# input Indicate the recorded pIC50 value for this molecule: Cc1ccc(NC(=O)c2ccnc(N3CCCC3)c2)cc1-c1ccsc1C(N)=O
# output 4.90

# input Return pIC50 (reported value) for this molecule: COc1ccc(C2C3CCCCC3(O)CCN2CC(=O)Nc2ccc(Cl)cc2Cl)cc1 (stereo not given)
# output 5.90

# input Indicate its recorded pIC50; the molecule in question is CCN(Cc1cccs1)C(=O)CSc1nnc(-c2ccc3c(c2)OCO3)o1
# output 5.60

# input Report pIC50 for N#Cc1cc([N+](=O)[O-])ccc1NC1CCCCCC1
# output 5.70

# input Provide measured pIC50 value, entry: N#Cc1ccc(C(=O)Nc2cccc(-c3cccc(CN4CCC(O)CC4)c3)c2)cc1
# output 5.10

# input Return value of pIC50 for input Cc1cccc(Nc2nc(-c3ccccn3)cs2)n1 , no commentary.
# output 6.00

# input Output measured pIC50 for this item: Cc1cn[nH]c1C1CCCN(Cc2nc3ccccc3n2C)C1 (stereo not given)
# output 4.70

# input Give the value of pIC50 reported for the following: Nc1nc(-c2ccccn2)nc(N)c1Cc1c(F)cccc1Cl
# output 5.70

Numbers sourced from ChEMBL document CHEMBL3430912.
